- Assay Info: Metabolic stability in mouse liver microsome assessed as half life at 1 uM by LC-MS/MS analysis
- Format: ADME
- Reported Conditions: liver microsomes
Overview of recorded half-life at 1 µM for various compounds
Readout: half-life at 1 µM (min)

>>> recorded_measurement("Clc1ccc(CCc2nnc(-c3ccccn3)n2Cc2cccs2)cc1")
3.3
>>> recorded_measurement("FC(Cc1ccccc1)c1nnc(-c2ccccn2)n1Cc1ccco1 (stereo not drawn)")
1.9
>>> recorded_measurement("OC(Cc1ccccc1)c1nnc(-c2ccccn2)n1Cc1ccco1 (stereo not drawn)")
2.5
>>> recorded_measurement("Clc1ccc(CCc2nnc(-c3ccccn3)n2Cc2cccs2)c(Cl)c1")
2.6
>>> recorded_measurement("Cc1ccc(CCc2nnc(-c3ccccn3)n2Cc2cccnc2)cc1C(F)(F)F")
1.6
>>> recorded_measurement("Clc1ccc(CCc2nnc(-c3ccccn3)n2Cc2cccs2)cc1Cl")
1.2
>>> recorded_measurement("Cc1ccc(CCc2nnc(-c3ccccn3)n2Cc2ccco2)cc1C(F)(F)F")
0.8
>>> recorded_measurement("Cc1ccc(CCc2nnc(-c3ccccc3)n2Cc2cccs2)cc1C(F)(F)F")
0.9

---

Overview of recorded pEC50 for various compounds
- Target Or System: Kappa-type opioid receptor (Homo sapiens)
- Assay Info: Agonist activity at human kappa opioid receptor tranfected in U2OS cells co-transfected with arrestin2-EFC assessed as induction of beta arrestin2 recruitment incubated for 90 mins by Synergy HT luminometer
- Type: functional, cell-based
pEC50: −log10 of the molar value.
Readout: pEC50

>>> recorded_measurement("Clc1ccc(CCc2nnc(-c3ccccn3)n2Cc2cccs2)cc1Cl")
6.50
>>> recorded_measurement("Clc1ccc(CCc2nnc(-c3ccccn3)n2Cc2cccs2)c(Cl)c1")
5.29
>>> recorded_measurement("Cc1ccc(CCc2nnc(-c3nccn3C)n2Cc2cccs2)cc1C(F)(F)F")
5.99
>>> recorded_measurement("Cc1ccc(CCc2nnc(-c3ccccn3)n2Cc2ccccn2)cc1C(F)(F)F")
5.09
>>> recorded_measurement("Cc1ccc(CCc2nnc(-c3ccccn3)n2Cc2cccnc2)cc1C(F)(F)F")
6.38
>>> recorded_measurement("Brc1ccc(CCc2nnc(-c3ccccn3)n2Cc2cccs2)cc1")
6.14
>>> recorded_measurement("Clc1ccc(CCc2nnc(-c3ccccn3)n2Cc2cccs2)cc1")
5.54
>>> recorded_measurement("Fc1ccc(CCc2nnc(-c3ccccn3)n2Cc2cccs2)cc1")
5.58
>>> recorded_measurement("Cc1ccc(CCc2nnc(-c3ncccc3C)n2Cc2cccs2)cc1C(F)(F)F")
5.79
>>> recorded_measurement("Cc1ccc(CCc2nnc(-c3ccccn3)n2CC2CC2)cc1C(F)(F)F")
5.21
>>> recorded_measurement("Cc1ccc(CCc2nnc(-c3ccccn3)n2Cc2cccs2)cc1C(F)(F)F")
6.23

---

Overview of recorded EC50 for various molecules
- Target Or System: UniProt:P41145
- Assay Info: Agonist activity at recombinant human kappa opioid receptor extracted from CHO cell membrane assessed as induction of [35S]GTPgammaS binding incubated for 1 hr by TopCount NXT Microplate Scintillation and Luminescence Counter analysis
- Type: functional, cell membranes
Readout: EC50 (nM)

>>> recorded_measurement("Cc1ccc(CCc2nnc(-c3ccccn3)n2Cc2ccccn2)cc1C(F)(F)F")
175
>>> recorded_measurement("Cc1ccc(CCc2nnc(-c3ccccn3)n2Cc2cccs2)cc1C(F)(F)F")
11
>>> recorded_measurement("Cc1ccc(CCc2nnc(-c3ccncn3)n2Cc2cccs2)cc1C(F)(F)F")
991
>>> recorded_measurement("Cc1ccc(CCc2nnc(-c3nccn3C)n2Cc2cccs2)cc1C(F)(F)F")
34
>>> recorded_measurement("Cc1ccc(CCc2nnc(-c3ccccn3)n2Cc2cccnc2)cc1C(F)(F)F")
55
>>> recorded_measurement("Cc1ccc(/C=C/c2nnc(-c3nccn3C)n2Cc2cccs2)cc1C(F)(F)F")
787
>>> recorded_measurement("Cc1ccc(CCc2nnc(-c3ccccn3)n2Cc2nccs2)cc1C(F)(F)F")
34
>>> recorded_measurement("Cc1ccc(CCc2nnc(-c3ncccc3C)n2Cc2cccs2)cc1C(F)(F)F")
13
>>> recorded_measurement("Cc1ccc(CCc2nnc(-c3cccnc3)n2Cc2cccs2)cc1C(F)(F)F")
1880
>>> recorded_measurement("Cc1ccc(/C=C/c2nnc(-c3ccccn3)n2Cc2ccco2)cc1C(F)(F)F")
1170
>>> recorded_measurement("Brc1cccc(CCc2nnc(-c3ccccn3)n2Cc2cccs2)c1")
51
>>> recorded_measurement("Cc1ccc(/C=C/c2nnc(-c3ccccn3)n2Cc2nccs2)cc1C(F)(F)F")
1130
>>> recorded_measurement("Clc1ccc(CCc2nnc(-c3ccccn3)n2Cc2cccs2)c(Cl)c1")
32
>>> recorded_measurement("COc1ccc(CCc2nnc(-c3ccccn3)n2Cc2cccs2)cc1")
122
>>> recorded_measurement("FC(F)(F)c1ccccc1CCc1nnc(-c2ccccn2)n1Cc1cccs1")
429
>>> recorded_measurement("c1ccc(-c2nnc(CCc3cccc4ccccc34)n2Cc2cccs2)nc1")
184
>>> recorded_measurement("Cc1ccc(CCc2nnc(-c3ccc4ccccc4n3)n2Cc2cccs2)cc1C(F)(F)F")
872
>>> recorded_measurement("Cc1ccc(CCc2nnc(-c3ccccn3)n2Cc2ccccc2)cc1C(F)(F)F")
83
>>> recorded_measurement("c1ccc(-c2nnc(CCc3ccc4ccccc4c3)n2Cc2cccs2)nc1")
12
>>> recorded_measurement("c1ccc(CCc2nnc(-c3ccccn3)n2Cc2cccs2)cc1")
926
>>> recorded_measurement("Clc1ccc(CCc2nnc(-c3ccccn3)n2Cc2cccs2)cc1")
33
>>> recorded_measurement("Cc1ccc(CCc2nnc(-c3ccccc3)n2Cc2cccs2)cc1C(F)(F)F")
406
>>> recorded_measurement("Cc1ccc(/C=C/c2nnc(-c3ccccn3)n2Cc2cccs2)cc1C(F)(F)F")
496
>>> recorded_measurement("Fc1ccc(CCc2nnc(-c3ccccn3)n2Cc2cccs2)cc1")
284
>>> recorded_measurement("Cc1ccc(CCc2nnc(-c3ccccn3)n2CC2CC2)cc1C(F)(F)F")
213
>>> recorded_measurement("Cc1ccc(CCc2nnc(-c3ncccn3)n2Cc2cccs2)cc1C(F)(F)F")
57
>>> recorded_measurement("Clc1ccc(CCc2nnc(-c3ccccn3)n2Cc2cccs2)cc1Cl")
5
>>> recorded_measurement("Brc1ccccc1CCc1nnc(-c2ccccn2)n1Cc1cccs1")
358
>>> recorded_measurement("Cc1ccc(CCc2nnc(-c3ccc4ccccc4c3)n2Cc2cccs2)cc1C(F)(F)F")
2960
>>> recorded_measurement("Cc1ccc(CCc2nnc(-c3cccc4ccccc34)n2Cc2cccs2)cc1C(F)(F)F")
429
>>> recorded_measurement("Cc1ccc(CCc2nnc(-c3ccccn3)n2Cc2ccco2)cc1C(F)(F)F")
21
>>> recorded_measurement("Brc1ccc(CCc2nnc(-c3ccccn3)n2Cc2cccs2)cc1")
20

---

- Assay Info: Metabolic stability in human liver microsome assessed as half life at 1 uM by LC-MS/MS analysis
- Assay type: ADME, microsomes
- Reported Conditions: liver microsomes
Readout: half-life at 1 µM (min)

>>> recorded_measurement("OC(Cc1nnc(-c2ccccn2)n1Cc1cccs1)c1ccccc1 (configuration not stated)")
20.7
>>> recorded_measurement("OC(Cc1ccccc1)c1nnc(-c2ccccn2)n1Cc1ccco1 (configuration not stated)")
17.4
>>> recorded_measurement("FC(Cc1nnc(-c2ccccn2)n1Cc1cccs1)c1ccccc1 (configuration not stated)")
7.2
>>> recorded_measurement("Clc1ccc(CCc2nnc(-c3ccccn3)n2Cc2cccs2)cc1")
3.3
>>> recorded_measurement("c1ccc(CCc2nnc(-c3ccccn3)n2Cc2cccs2)cc1")
5.5
>>> recorded_measurement("Cc1ccc(CCc2nnc(-c3ccccn3)n2Cc2ccccc2)cc1C(F)(F)F")
0.9
>>> recorded_measurement("Cc1ccc(/C=C/c2nnc(-c3ccccn3)n2Cc2cccs2)cc1C(F)(F)F")
22
>>> recorded_measurement("FC(Cc1ccccc1)c1nnc(-c2ccccn2)n1Cc1ccco1 (configuration not stated)")
9.1
>>> recorded_measurement("Clc1ccc(CCc2nnc(-c3ccccn3)n2Cc2cccs2)c(Cl)c1")
2.1
>>> recorded_measurement("O=C(Cc1ccccc1)c1nnc(-c2ccccn2)n1Cc1ccco1")
8.1
>>> recorded_measurement("c1ccc(-c2nnc(-c3ccccn3)n2Cc2cccs2)cc1")
69.7
>>> recorded_measurement("Clc1ccc(CCc2nnc(-c3ccccn3)n2Cc2cccs2)cc1Cl")
1.5
>>> recorded_measurement("Cc1ccc(CCc2nnc(-c3ccccn3)n2Cc2cccs2)cc1C(F)(F)F")
1.4
>>> recorded_measurement("Cc1ccc(CCc2nnc(-c3ccccn3)n2Cc2cccnc2)cc1C(F)(F)F")
1.7
>>> recorded_measurement("Cc1ccc(CCc2nnc(-c3ccccn3)n2-c2ccccc2)cc1C(F)(F)F")
1.6
>>> recorded_measurement("Cc1ccc(CCc2nnc(-c3ccccc3)n2Cc2cccs2)cc1C(F)(F)F")
1.8
>>> recorded_measurement("Cc1ccc(CCc2nnc(-c3nccn3C)n2Cc2cccs2)cc1C(F)(F)F")
3.1

---

- Target Or System: Kappa-type opioid receptor (Homo sapiens, UniProt P41145)
- Sequence (P41145 whole entry): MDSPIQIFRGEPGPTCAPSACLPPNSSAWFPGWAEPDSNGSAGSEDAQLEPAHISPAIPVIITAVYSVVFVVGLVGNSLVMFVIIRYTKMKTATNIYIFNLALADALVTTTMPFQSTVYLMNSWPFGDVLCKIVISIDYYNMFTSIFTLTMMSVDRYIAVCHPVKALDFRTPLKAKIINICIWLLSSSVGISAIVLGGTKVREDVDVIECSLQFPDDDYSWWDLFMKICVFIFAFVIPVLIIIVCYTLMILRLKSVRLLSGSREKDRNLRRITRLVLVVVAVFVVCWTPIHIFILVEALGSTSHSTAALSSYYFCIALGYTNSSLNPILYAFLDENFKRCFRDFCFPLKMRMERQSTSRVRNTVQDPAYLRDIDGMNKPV
- Assay Info: Agonist activity at recombinant human kappa opioid receptor extracted from CHO cell membrane assessed as induction of [35S]GTPgammaS binding by measuring maximum efficacy at 10 uM incubated for 1 hr by TopCount NXT Microplate Scintillation and Luminescence Counter analysis relative to U69,593
- Format: functional, cell membranes
- Reported Conditions: filed as agonist
Readout: Emax (%)

>>> recorded_measurement("Cc1ccc(/C=C/c2nnc(-c3ccccn3)n2Cc2ccco2)cc1C(F)(F)F")
89
>>> recorded_measurement("Cc1ccc(CCc2nnc(-c3ccccn3)n2Cc2ccco2)cc1C(F)(F)F")
90
>>> recorded_measurement("Clc1ccc(CCc2nnc(-c3ccccn3)n2Cc2cccs2)cc1")
86
>>> recorded_measurement("FC(Cc1nnc(-c2ccccn2)n1Cc1cccs1)c1ccccc1 (stereo not drawn)")
82
>>> recorded_measurement("Cc1ccc(CCc2nnc(-c3nccn3C)n2Cc2cccs2)cc1C(F)(F)F")
91
>>> recorded_measurement("Brc1ccc(CCc2nnc(-c3ccccn3)n2Cc2cccs2)cc1")
92
>>> recorded_measurement("Cc1ccc(CCc2nnc(-c3ccccn3)n2Cc2cccnc2)cc1C(F)(F)F")
87
>>> recorded_measurement("Cc1ccc(/C=C/c2nnc(-c3ccccn3)n2Cc2cccs2)cc1C(F)(F)F")
79
>>> recorded_measurement("Cc1ccc(CCc2nnc(-c3ccccn3)n2Cc2ccccn2)cc1C(F)(F)F")
84
>>> recorded_measurement("c1ccc(CCc2nnc(-c3ccccn3)n2Cc2cccs2)cc1")
76
>>> recorded_measurement("Cc1ccc(/C=C/c2nnc(-c3nccn3C)n2Cc2nccs2)cc1C(F)(F)F")
309
>>> recorded_measurement("Brc1cccc(CCc2nnc(-c3ccccn3)n2Cc2cccs2)c1")
89
>>> recorded_measurement("Brc1ccccc1CCc1nnc(-c2ccccn2)n1Cc1cccs1")
84
>>> recorded_measurement("Clc1ccc(CCc2nnc(-c3ccccn3)n2Cc2cccs2)c(Cl)c1")
91
>>> recorded_measurement("Cc1ccc(CCc2nnc(-c3cccnc3)n2Cc2cccs2)cc1C(F)(F)F")
85
>>> recorded_measurement("Fc1ccc(CCc2nnc(-c3ccccn3)n2Cc2cccs2)cc1")
90
>>> recorded_measurement("Cc1ccc(/C=C/c2nnc(-c3ccccn3)n2Cc2nccs2)cc1C(F)(F)F")
83
>>> recorded_measurement("Cc1ccc(CCc2nnc(-c3ccccn3)n2Cc2nccs2)cc1C(F)(F)F")
64

Source listed as ChEMBL document CHEMBL5608183.
